# Tested on: RAW264.7 macrophages
# Method: MTT cytotoxicity assay, RAW264.7
# Format: cell-based, murine
# Reported conditions: Mus musculus, RAW264.7; MTT, 24 h; read-out: IC50 RAW264.7 (macrophage)
pIC50: −log10 of the molar value.
So basically: pIC50 at 5 or higher? That is Fulfilled. Lower than 5? That is Not fulfilled.

INSERT INTO measurements (compound, class_name) VALUES
  ('COC(=O)CC[C@@H](C)[C@H]1CC[C@H]2[C@@H]3CC[C@@H]4CC(O)(CNCCCO)CC[C@]4(C)[C@H]3CC(=O)[C@]12C (stereo partly drawn)', 'Not fulfilled');

State whether the measured pIC50 reaches 5, counting equality as reaching it, for COC(=O)CC[C@@H](C)[C@H]1CCC2[C@@H]3CC[C@@H]4C[C@](O)(CNCCCN(C)C)CC[C@]4(C)C3CC(=O)[C@@]21C (stereo partly drawn)
Fulfilled

// repeat for CCN(CC)CCCNC[C@]1(O)CC[C@]2(C)C3CC(=O)[C@@]4(C)C(CC[C@@H]4[C@H](C)CCC(=O)OC)[C@@H]3CC[C@@H]2C1 (stereo partly drawn) and report
Fulfilled

Moving on to the next compound: COC(=O)CC[C@@H](C)[C@H]1CC[C@H]2[C@@H]3CC[C@@H]4CC(O)(CN5CCOCC5)CC[C@]4(C)[C@H]3CC(=O)[C@]12C (stereo partly drawn)
Not fulfilled

Repeat for the following compound: COC(=O)CC[C@@H](C)[C@H]1CCC2[C@@H]3CC[C@@H]4C[C@@]5(CC[C@]4(C)C3CC(=O)[C@@]21C)CO5 (stereo partly drawn)
Not fulfilled

Then CCN1CCN(C[C@]2(O)CC[C@]3(C)C4CC(=O)[C@@]5(C)C(CC[C@@H]5[C@H](C)CCC(=O)OC)[C@@H]4CC[C@@H]3C2)CC1 (stereo partly drawn) ?
Not fulfilled

Then this compound: COC(=O)CC[C@@H](C)[C@H]1CCC2[C@@H]3CC[C@@H]4C[C@](O)(CN5CCN(C)CC5)CC[C@]4(C)C3CC(=O)[C@@]21C (stereo partly drawn)
Not fulfilled

Here is the next compound: COC(=O)CC[C@@H](C)[C@H]1CC[C@H]2[C@@H]3CC[C@@H]4CC(O)(CNCCO)CC[C@]4(C)[C@H]3CC(=O)[C@]12C (stereo partly drawn)
Not fulfilled

Thanks! And C[C@H](CCC(=O)O)[C@H]1CC[C@H]2[C@@H]3CC[C@@H]4C[C@H](O)CC[C@]4(C)[C@H]3C[C@H](O)[C@]12C ?
Not fulfilled

What about COC(=O)CC[C@@H](C)[C@H]1CC[C@H]2[C@@H]3CC[C@@H]4C[C@H](O)CC[C@]4(C)[C@H]3CC(=O)[C@]12C ?
Not fulfilled

Also CCN(CC)CCNC[C@]1(O)CC[C@]2(C)C3CC(=O)[C@@]4(C)C(CC[C@@H]4[C@H](C)CCC(=O)OC)[C@@H]3CC[C@@H]2C1 (stereo partly drawn) , if possible.
Not fulfilled

Now the compound COC(=O)CC[C@@H](C)[C@H]1CCC2[C@@H]3CC[C@@H]4C[C@](O)(CNCCN(C)C)CC[C@]4(C)C3CC(=O)[C@@]21C (stereo partly drawn)
Not fulfilled
